GI50 values, listed per item
- System: 786-0 renal
- Protocol: NCI tumour cell line growth inhibition, 48 h

| Compound | GI50 |
| --- | --- |
| Cn1ccc(S(=O)(=O)N2CCC[C@H](Nc3nccc(-c4c(-c5cccc(O)c5)nc5occn45)n3)C2)n1 | 20.1 µM |
| COc1cccc(N2C(=N)/C(=C3\Nc4ccccc4S3)CC2=O)c1 | 4.91 µM |
| COc1ccc(-c2cc(-c3ccc(Cl)cc3)nc(SCCCC(=O)NO)n2)cc1OC | 0.591 µM |
| CN1CCN(CCCCCOc2cc(O)c3c(=O)cc(-c4ccccc4)oc3c2)CC1 | 12.4 µM |
| C=CCc1cc(O)ccc1O | 22.8 µM |
| Cn1cc(Nc2nccc(-c3ccc4c(c3)CN(C3COC3)CC[C@H]4NC(=O)c3cn(C(C)(C)C)nn3)n2)cn1 | 50.5 µM |
| O=C(NNC1=NS(=O)(=O)c2ccccc2N1c1ccccc1)c1cnccn1 | > 100 µM |
| CCOC(=O)C(Cc1ccccc1)n1c(O)c(/C=N/c2ncc(Cc3ccc(Cl)cc3Cl)s2)sc1=S (stereo not drawn) | 3.15 µM |
